# Tested on: guinea pig Histamine Receptor (H2), gene 100729734
# method summary: NVS_GPCR_gH2: NovaScreen (NVS) G Protein-Coupled Receptor Assay for guinea pig Histamine Receptor (H2) (AID 2283342)
Results filed as inconclusive are left out. Calls of active or inactive are those of the source. How the source made its calls: active means hit-call score of the fitted dose curve at least 0.9, where 1 is the maximum; inconclusive means response in the unintended direction; inactive means score below 0.9.
Select the matching outcome among class 1 = active, class 0 = inactive

# input // param item: CCC[CH2][Sn]([Cl])([CH2]CCC)[CH2]CCC ; yields the recorded call
# output class 1

# input For this molecule, state the assay outcome: COP(=S)(OC)SCN1C(=O)c2ccccc2C1=O
# output class 0

# input State the result this test recorded for C[C@]12C=CC3=C4CCC(=O)C=C4CC[C@H]3[C@@H]1CC[C@@H]2O .
# output class 0

# input Per the records of this test, what outcome belongs to [Cl-].[Cl-].[Hg+2] ?
# output class 1

# input Recorded test call requested for CCCCCCCCn1sccc1=O
# output class 1

# input For CCOC(=O)[C@]1(c2ccccc2)Oc2ccccc2[C@@H]1N , what call appears in the results of this test?
# output class 1

###

# measured on: rat Acetylcholinesterase (AChE), Ache (gene 83817) (UniProt P37136)
# Sequence (P37136 whole entry, looked up): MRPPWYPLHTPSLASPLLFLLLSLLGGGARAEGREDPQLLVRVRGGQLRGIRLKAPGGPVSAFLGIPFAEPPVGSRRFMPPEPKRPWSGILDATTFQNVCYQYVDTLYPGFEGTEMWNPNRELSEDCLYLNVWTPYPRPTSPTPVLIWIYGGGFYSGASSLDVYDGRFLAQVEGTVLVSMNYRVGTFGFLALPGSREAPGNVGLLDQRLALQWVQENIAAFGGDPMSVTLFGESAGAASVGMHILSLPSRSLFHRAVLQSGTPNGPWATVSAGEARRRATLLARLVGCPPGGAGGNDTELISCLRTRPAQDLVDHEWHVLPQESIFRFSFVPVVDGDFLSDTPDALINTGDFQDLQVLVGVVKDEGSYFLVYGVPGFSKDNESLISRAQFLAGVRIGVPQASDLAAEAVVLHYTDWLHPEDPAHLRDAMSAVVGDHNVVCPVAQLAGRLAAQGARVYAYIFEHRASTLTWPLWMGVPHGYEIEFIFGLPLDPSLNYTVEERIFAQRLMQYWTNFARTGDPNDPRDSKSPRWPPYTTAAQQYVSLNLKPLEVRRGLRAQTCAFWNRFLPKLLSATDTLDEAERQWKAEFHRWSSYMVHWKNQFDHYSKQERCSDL
# method summary: NVS_ENZ_rAChE: NovaScreen (NVS) Enzymatic Assay for rat Acetylcholinesterase (AChE) (AID 2283233)
# Protocol: NVS_ENZ_rAChE is a biochemical, single-readout assay that uses extracted gene-proteins from Rat brain membranes in a tissue-based cell-free assay. Measurements were taken 0.33 hour after chemical dosing in a 96-well plate.NVS_ENZ_rAChE is one of one assay component(s) measured or calculated from the NVS_ENZ_rAChE assay. […] This assay endpoint, NVS_ENZ_rAChE, was analyzed in the positive analysis fitting direction relative to DMSO as the negative control and baseline of activity. […]
Records with an inconclusive call do not appear. The source made the active and inactive calls. How the source made its calls: active means hit-call score of the fitted dose curve at least 0.9, where 1 is the maximum; inconclusive means response in the unintended direction; inactive means score below 0.9.

[
  {
    "line notation": "COP(=S)(OC)SCN1C(=O)c2ccccc2C1=O",
    "AC50": "inactive"
  },
  {
    "line notation": "CNC(=O)Oc1cccc2c1OC(C)(C)C2",
    "AC50": "0.464 µM (active)"
  },
  {
    "line notation": "O=[N+]([O-])C(Br)(CO)CO",
    "AC50": "35.2 µM (active)"
  },
  {
    "line notation": "CN(C)C(=O)Nc1ccc(Cl)cc1",
    "AC50": "inactive"
  }
]

###

# Read-out: BCL2L11 (gene 10018)
# method summary: LTEA_HepaRG_BCL2L11: Life Technologies and Expression Analysis (LTEA) Assay for Bcl-2 (BCL2L11) gene using HepaRG (AID 2283473)
# condition description: mRNA level, 48 h; actives raise or lower the signal
The source made the active and inactive calls. The calls were made as follows: active = hit-call score of the fitted dose curve at least 0.9, where 1 is the maximum; inactive = score below 0.9.
Field 'call' accepts active, inactive

# input Look up the recorded call for N#CC(Br)(Br)C(N)=O in this test.
# output inactive

# input Could you please tell me the result logged for c1ccc(NNc2ccccc2)cc1 in this assay?
# output inactive

# input Any idea what this test logged for c1ccc2c(c1)oc1ccccc12 ?
# output inactive

# input Fill in: this test's call for ClC1=C(Cl)[C@]2(Cl)[C@H]3[C@H]([C@@H]4C=C[C@H]3C4)[C@@]1(Cl)C2(Cl)Cl is ___
# output inactive

# input Given CCOc1cccc(C2(N3CCN(c4ccccc4)CC3)CCC(C)CC2)c1 (stereo not given) , state the outcome it received in this test.
# output inactive

# input Test call, this compound: O=C(O)C1C2CCC(O2)C1C(=O)O (stereo not given)
# output inactive

# input Test call for this compound, please: CC(C)(C)C(O)(CCc1ccc(Cl)cc1)Cn1cncn1 (stereo not given)
# output inactive

# input Query: recorded result category for CCCCCOC(=O)c1ccccc1C(=O)OCCCCC in this test
# output inactive

# input Which outcome was entered for the compound Cc1cccc(N)c1N in this test?
# output active

# input Hi, sorry to bother you, what did the test record for Cc1ccc(N)c(N)c1 ?
# output inactive

# input Hi, do you know how CCOC(=O)[C@]1(c2ccccc2)Oc2ccccc2[C@@H]1N came out in this test?
# output inactive

# input Any idea what this test logged for Nc1ccc(Oc2ccc(N)cc2)cc1 ?
# output inactive

# input Lab log entry: Nc1cc(Cl)cc(C(=O)O)c1Cl — outcome as called in the assay?
# output inactive

# input Please share the test call associated with Cc1ccc(N=C=O)cc1N=C=O .
# output inactive

# input # lookup: test call for CC(C)(C)OOC(=O)c1ccccc1
# output inactive

# input What was the test verdict on COc1cc(C=O)cc2c1[C@H](COC(N)=O)[C@]1(OC(C)=O)ON2C[C@H]2[C@@H]1N2C(C)=O ?
# output active

# input Call for entry c1ccc(N=Nc2ccccc2)cc1 :
# output inactive

# input Field: outcome | Entry: CCCCC(CC)COC(=O)c1ccc(C(=O)OCC(CC)CCCC)c(C(=O)OCC(CC)CCCC)c1 (stereo not given)
# output inactive

# input Hello, I am checking results. What call was entered for OCCCBr ?
# output inactive

# input # outcome recorded in this test, key = CO[C@@H]1[C@H](OC(=O)NC(=O)CCl)CC[C@]2(CO2)[C@H]1[C@@]1(C)O[C@@H]1CC=C(C)C
# output inactive

# input # outcome recorded in this test, key = COC(=O)c1ccccc1N
# output inactive

# input Name the outcome recorded for OCCCl in the assay.
# output inactive

# input Please let me know the test result on file for CNC(=O)Oc1cccc2c1OC(C)(C)C2 .
# output inactive

# input Recorded test outcome, item COP(=S)(OC)SCN1C(=O)c2ccccc2C1=O
# output inactive

# input In this assay, the call recorded for CN(C)c1ccccc1 was what?
# output inactive

# input Fill in: this test's call for C=CCc1ccc2c(c1)OCO2 is ___
# output inactive

# input What classification did Clc1ccc(C(c2ccc(Cl)cc2)C(Cl)(Cl)Cl)cc1 end up with in this test?
# output inactive

# input What outcome does the record of this test show for C[C@]12C=CC3=C4CCC(=O)C=C4CC[C@H]3[C@@H]1CC[C@@H]2O ?
# output inactive

# input Per the records of this test, what outcome belongs to Nc1ccc(Cc2ccc(N)cc2)cc1 ?
# output inactive

# input Which outcome was entered for the compound O=C(Nc1ccccc1)c1ccccc1I in this test?
# output inactive

# input GET /call?item= O=C(N[C@H](c1ccccc1)[C@@H]1CN2CCC1CC2)c1c(Cl)ccc(C(F)(F)F)c1Cl returns the recorded outcome of this test.
# output active

# input What call does the record list for OCCOCCO ?
# output inactive

# input // outcome(item) with item = COC(=O)Nc1nc2ccccc2[nH]1
# output inactive

# input Short answer needed: outcome of this test for [As]#[In] ?
# output inactive

# input Fill in: this test's call for Nc1ccc(N=Nc2ccccc2)cc1 is ___
# output active

# input Outcome? CCCCCCCCn1sccc1=O
# output inactive

# input Can you look up the reported call for CCC12COCN1COC2 for me?
# output inactive

# input Check the results log: what was the call for ClC1=C(Cl)C2(Cl)C3C(Cl)C=CC3C1(Cl)C2(Cl)Cl (stereo not given) ?
# output inactive

# input Hi, sorry to bother you, what did the test record for Oc1ccc2ccc3cccc4ccc1c2c34 ?
# output inactive

# input Write down the call the test reported for this compound. Item: Nc1ccc([N+](=O)[O-])cc1
# output inactive

# input Hey, what did the test say about O=[N+]([O-])c1ccc(Oc2ccc(Cl)cc2Cl)cc1 ?
# output inactive

# input Status in this test for O=P(OCCCl)(OCCCl)OCCCl ?
# output inactive

# input I'd appreciate the recorded outcome for CCN(CC)N=O from this test.
# output inactive

# input For CN(C)[C@@H]1C(=O)C(C(N)=O)=C(O)[C@@]2(O)C(=O)C3=C(O)c4c(O)cccc4[C@@](C)(O)[C@H]3C[C@@H]12 , what call appears in the results of this test?
# output inactive

# input // return assay outcome for N#CC(Br)Br
# output inactive

###

# method summary: Tanguay_ZF_120hpf_ActivityScore_legacy: (Legacy) Oregon State University Tanguay Lab 120 Hour Post-fertilization zebrafish Assay Score for Activity (AID 2283742)
Active and inactive are the calls of the source. The calls were made as follows: active = hit-call score of the fitted dose curve at least 0.9, where 1 is the maximum; inconclusive = response in the unintended direction; inactive = score below 0.9.
One label from this list, please: TRUE for active, FALSE for inactive

# input Dear all, I need the recorded test outcome for CN(C)c1ccc(C(=O)c2ccc(N(C)C)cc2)cc1 , thank you.
# output TRUE

# input How was COc1cc(C=O)cc2c1[C@H](COC(N)=O)[C@]1(OC(C)=O)ON2C[C@H]2[C@@H]1N2C(C)=O classified in this test?
# output TRUE

# input Hey, what did the test say about Nc1ccc([N+](=O)[O-])cc1 ?
# output FALSE

# input How was Cc1cc(N=Nc2ccccc2C)ccc1N classified in this test?
# output TRUE

# input Please state the recorded outcome for this molecule: Cn1cc(-c2ccccc2)c(=O)c(-c2cccc(C(F)(F)F)c2)c1
# output FALSE

# input GET /call?item= Oc1ccc2ccc3cccc4ccc1c2c34 returns the recorded outcome of this test.
# output TRUE

# input Which outcome was entered for the molecule COC(=O)c1ccccc1N in this test?
# output FALSE

# input What outcome does the record of this test show for C1=Cc2cccc3cccc1c23 ?
# output FALSE

# input Short answer needed: outcome of this test for CCCCCCCCn1sccc1=O ?
# output TRUE

# input # outcome recorded in this test, key = C=CCc1ccc2c(c1)OCO2
# output FALSE

# input Test call for this molecule, please: ClC1=C(Cl)C2(Cl)C3C(Cl)C=CC3C1(Cl)C2(Cl)Cl (centres undefined)
# output FALSE

# input // outcome(item) with item = CCCCCCCCCCCCCN1CC(C)OC(C)C1 (centres undefined)
# output FALSE

# input For [O-][Cl+]O , which call appears in the assay record?
# output FALSE

# input Entry CCC(C)c1ccc(O)cc1 (centres undefined) : call = ?
# output FALSE

Values compiled from PubChem BioAssay (EPA / NIEHS).
